- Assay Summary: Pharmacokinetic study in Sprague Dawley rats
- Format: in vivo
- Study Conditions: rat, plasma, iv, I.V. (1 mg/kg)
Readout Name: half-life (h)
Respond with the bare value in h.

> print(dat)
                                        mol  readout.name  value.reported
1  [2H]C([2H])([2H])CC(=O)c1cnc(NC(=O)C2CC2)cc1Nc1cccc(-c2ncn(C([2H])([2H])[2H])n2)c1OC     half-life            2.14
2  [2H]C([2H])([2H])CC(=O)c1cnc(Nc2ccc(C(C)(C)O)c(F)n2)cc1Nc1cccc(-c2ncn(C([2H])([2H])[2H])n2)c1OC     half-life           0.323
3  [2H]C([2H])([2H])CC(=O)c1cnc(Nc2cccc(C#N)n2)cc1Nc1nccc(-c2ncn(C([2H])([2H])[2H])n2)c1OC     half-life            1.74

For reference, reported half-life for [2H]C([2H])([2H])CC(=O)c1cnc(Nc2ccc(C(C)(C)O)c(F)n2)cc1Nc1nccc(-c2ncn(C([2H])([2H])[2H])n2)c1OC stands at 0.759

For reference, reported half-life for [2H]C([2H])([2H])CC(=O)c1cnc(Nc2cccc(C#N)n2)cc1Nc1cccc(-c2ncn(C([2H])([2H])[2H])n2)c1OC stands at 1.22

For reference, reported half-life for [2H]C([2H])([2H])CC(=O)c1cnc(NC(=O)C2CC2)cc1Nc1nccc(-c2ncn(C([2H])([2H])[2H])n2)c1OC stands at 1.58

====

- Assay Summary: Pharmacokinetic study in C57BL/6 mice
- Assay type: in vivo
- Study Conditions: male, mouse, plasma, iv, I.V. (2 mg/kg)
Readout Name: clearance (mL/min/kg)
Respond with the bare value in mL/min/kg.

// solved cases for clearance follow
> print(dat)
                                   molecule  value.reported
1  [2H]C([2H])([2H])CC(=O)c1cnc(NC(=O)C2CC2)cc1Nc1cccc(-c2ncn(C([2H])([2H])[2H])n2)c1OC [Example 195]            4.16
2  [2H]C([2H])([2H])CC(=O)c1cnc(Nc2ccc(C(C)(C)O)c(F)n2)cc1Nc1cccc(-c2ncn(C([2H])([2H])[2H])n2)c1OC [Example 202]            17.3

Next molecule, clearance to be filled in.
For reference, reported clearance for [2H]C([2H])([2H])CC(=O)c1cnc(NC(=O)C2CC2)cc1Nc1nccc(-c2ncn(C([2H])([2H])[2H])n2)c1OC [Example 200] stands at 7.35

====

- Tested on: GM-CSF-induced pSTAT5 in human PBMC
- Assay Summary: GM-CSF-induced pSTAT5 in human PBMC
- Format: cell-based
- Study Conditions: GM-CSF 10 ng/ml
pIC50: −log10 of the molar value.
Entries and their pIC50 values follow.

// solved cases for pIC50 follow
> print(dat)
                                        mol  value.reported
1  [2H]C([2H])([2H])CC(=O)c1cnc(Nc2ccc(C(C)(C)O)c(F)n2)cc1Nc1nccc(-c2ncn(C([2H])([2H])[2H])n2)c1OC    6.00 to 7.00
2  [2H]C([2H])([2H])CC(=O)c1cnc(Nc2cccc(C#N)n2)cc1Nc1nccc(-c2ncn(C([2H])([2H])[2H])n2)c1OC    5.00 to 6.00
3  [2H]C([2H])([2H])CC(=O)c1cnc(Nc2cccc(C#N)n2)cc1Nc1cccc(-c2ncn(C([2H])([2H])[2H])n2)c1OC    5.00 to 6.00

Next compound, pIC50 to be filled in.
For reference, reported pIC50 for [2H]C([2H])([2H])CC(=O)c1cnc(NC(=O)C2CC2)cc1Nc1cccc(-c2ncn(C([2H])([2H])[2H])n2)c1OC stands at 5.00 to 6.00
